biological target: CGRP receptor (SK-N-MC cell membranes) (UniProt Q16602); test: displacement of 125I-human CGRP from SK-N-MC cell membranes
Sequence (Q16602 23-461, chain 1 of 2): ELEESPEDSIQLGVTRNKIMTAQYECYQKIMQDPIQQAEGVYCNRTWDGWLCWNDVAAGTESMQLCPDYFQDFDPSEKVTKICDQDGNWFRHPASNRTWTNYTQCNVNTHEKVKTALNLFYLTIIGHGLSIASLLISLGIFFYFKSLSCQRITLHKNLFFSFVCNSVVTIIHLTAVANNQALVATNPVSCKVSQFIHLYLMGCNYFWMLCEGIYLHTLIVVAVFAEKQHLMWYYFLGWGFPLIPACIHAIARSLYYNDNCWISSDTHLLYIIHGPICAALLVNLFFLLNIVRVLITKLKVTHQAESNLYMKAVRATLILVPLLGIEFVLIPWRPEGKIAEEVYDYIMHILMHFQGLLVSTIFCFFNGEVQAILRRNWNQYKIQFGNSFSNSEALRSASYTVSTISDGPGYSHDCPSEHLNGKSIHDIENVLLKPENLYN
Sequence (O60894 27-148, chain 2 of 2, further chain): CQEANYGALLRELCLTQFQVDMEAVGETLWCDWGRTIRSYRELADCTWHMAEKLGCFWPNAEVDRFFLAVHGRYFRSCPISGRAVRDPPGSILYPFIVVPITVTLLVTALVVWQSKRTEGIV
Numbered stars: 1 amine (or outer) side, 2 acyl side, 3 side chain; on linkers, the order of the positions; unused ones are H or OH. Side chains are listed from the residue outwards. Ends that are not written are not given here. γGlu = O=C(O)[C@H](CCC(=O)[*:2])N[*:1]
Decide using IC50 alone. Strictly below 0.05 µM: true (1). Equal to or above 0.05 µM: false (0).

| binder | group_label |
| --- | --- |
| KCNTATCALQRLAQELHRLQK([γGlu-C16‑Chain])YPRTNVGSNTY-NH2 (ends and bridges not checked) [Cmpd 187 ([K^21ε-(γ-Glu(Nα-C16-Chain))]-Cmpd 17)] | true (1) |
| KCNTATCALQRLAQELHRLQTYPRTK([γGlu-C16‑Chain])VGSNTY-NH2 (ends and bridges not checked) [Cmpd 189 ([K^26ε-(γ-Glu(Nα-C16-Chain))]-Cmpd 17)] | false (0) |
| KCNTATCALQK([γGlu-C16‑Chain])LAQELHRLQTYPRTNVGSNTY-NH2 (ends and bridges not checked) [Cmpd 193 ([K^11ε(γ-Glu(Nα-C16-Chain))]-Cmpd 17)] | true (1) |
| KCNTATCALQRLAQELHRLQTYPK([γGlu-C16‑Chain])TNVGSNTY-NH2 (ends and bridges not checked) [Cmpd 188 ([K^24ε-(γ-Glu(Nα-C16-Chain))]-Cmpd 17)] | false (0) |
| KCNTATCALQRLAQELHK([γGlu-C16‑Chain])LQTYPRTNVGSNTY-NH2 (ends and bridges not checked) [Cmpd 186 ([K^18ε-(γ-Glu(Nα-C16-Chain))]-Cmpd 17)] | true (1) |

// provenance: patent US20140249076A1
